src = ChEMBL document CHEMBL1921782

Quick reference: Ki of the listed items.
# TARGET UNDER TEST: Histamine H1 receptor (Homo sapiens)
# PROTOCOL DETAILS: biochemical
# Format: cell-based, HEK293
# STATED CONDITIONS: read-out: Ki

SMILES STRUCTURE | Ki
c1ccc(Cc2ccccc2OC2CCNCC2)cc1 | 6 nM

Now, please, on to the next compound.
Indicate the recorded Ki value for this compound: CN1CCN(c2nc(N3CCCC3)c3cnn(C)c3n2)CC1
62 nM

* * *

Measurement record for Histamine H3 receptor (Homo sapiens, UniProt Q9Y5N1); quantity recorded: pKi.
Scale explanation: pKi corresponds to minus log10 of a concentration expressed in moles per litre.

SMILES STRUCTURE | TARGET UNDER TEST | pKi
c1ccc2c(N3CCN(C4CCCC4)CC3)ncnc2c1 | Histamine H3 receptor (Homo sapiens, UniProt Q9Y5N1) | 7.00

Now, please, on to the next compound.
# assay system Histamine H3 receptor (Homo sapiens, UniProt Q9Y5N1): give pKi of c1ccc2c(c1)nc1n(CCN3CCCCC3)cnn21
6.22

* * *

# TARGET UNDER TEST: Histamine H1 receptor (Homo sapiens)
# PROTOCOL DETAILS: biochemical
# Type: cell-based, HEK293
# STATED CONDITIONS: read-out: pKi (converted)
Quick reference: Ki of the listed items.
Express the result in nM but write the number alone.

Illustrative cases are given below, each with its answer.
COMPOUND | Ki, nM
c1ccc2c(N3CCN(C4CCCC4)CC3)ncnc2c1 | 3240
C=CCn1c(=N)n(CC(=O)c2ccccc2)c2ccccc21 | 10700
OCCN1CCN(c2ncnc3sccc23)CC1 | 708

Indicate the recorded Ki value for this compound: c1cnc2c(c1)cc([C@@H]1CCCO1)n2CCN1CCCCC1
1780

Indicate the recorded Ki value for this compound: CNCC(O)CN1c2ccccc2C2CCCCC21 (centres undefined)
2290

Indicate the recorded Ki value for this compound: CNCCCOc1cccc2ccccc12
794

Indicate the recorded Ki value for this compound: OC(CNC1CC1)Cn1c2ccccc2c2ccccc21 (centres undefined)
6310

Indicate the recorded Ki value for this compound: CN(C)CCSc1nc2ccccc2c2nnnn12
708

Indicate the recorded Ki value for this compound: NC1=NC(c2ccccc2)n2c(nc3ccccc32)N1 (centres undefined)
427

* * *

# TARGET UNDER TEST: Histamine H1 receptor (Homo sapiens, UniProt P35367)
# Sequence (P35367 whole entry): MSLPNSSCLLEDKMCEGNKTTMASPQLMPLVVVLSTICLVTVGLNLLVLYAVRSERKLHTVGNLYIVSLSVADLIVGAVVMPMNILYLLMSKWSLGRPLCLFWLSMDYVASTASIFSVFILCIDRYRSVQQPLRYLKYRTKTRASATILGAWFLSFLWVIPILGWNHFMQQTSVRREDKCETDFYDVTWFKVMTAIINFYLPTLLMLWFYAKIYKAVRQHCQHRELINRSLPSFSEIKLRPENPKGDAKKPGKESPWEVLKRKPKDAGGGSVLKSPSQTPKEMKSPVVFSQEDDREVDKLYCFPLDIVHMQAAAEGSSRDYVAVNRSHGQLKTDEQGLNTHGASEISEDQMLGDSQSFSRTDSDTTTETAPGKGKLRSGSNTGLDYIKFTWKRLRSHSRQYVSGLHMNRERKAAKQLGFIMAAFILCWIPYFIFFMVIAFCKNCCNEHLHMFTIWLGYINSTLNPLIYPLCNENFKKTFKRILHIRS
# PROTOCOL DETAILS: biochemical
# Assay type: cell-based, HEK293
# STATED CONDITIONS: read-out: pKi (converted)
READOUT: Ki (µM)
Express the result in µM but write the number alone.

Illustrative cases are given below, each with its answer.
SMILES STRUCTURE | TARGET UNDER TEST | Ki / µM
c1ccc2c(c1)n(CCN1CCCCC1)c1ncnn21 | Histamine H1 receptor (Homo sapiens, UniProt P35367) | 4.17
C1CCN(c2nc(N3CCCC3)nc(N3CCNCC3)n2)C1 | Histamine H1 receptor (Homo sapiens, UniProt P35367) | 1.91
c1ccc2c(c1)nc1n(CCN3CCCCC3)cnn21 | Histamine H1 receptor (Homo sapiens, UniProt P35367) | 2.63
CC(C)NCc1ccc(-c2ccccc2)o1 | Histamine H1 receptor (Homo sapiens, UniProt P35367) | 4.57

Now, please, on to the next compound.
Indicate the recorded Ki value for this compound: NCCc1ccccc1Oc1ccccc1
11
